assay: log P of the solvents used in the transglycosylation (Table 1); format: physicochemical; details: property of the dialkyl amide solvent; method not described
Reported logP values for a set of compounds
REPORTED_PROPERTY: logP

>  <COMPOUND>
CC(O)C(=O)N(C)C (centres unmarked) [LDMA, lactic acid dimethyl amide]

>  <TEST_RESULT>
-0.69

$$$$
>  <COMPOUND>
CCCCCCCC(=O)N(C)C [CDMA, caprylic dimethyl amide]

>  <TEST_RESULT>
1.42

$$$$
